Origin of measurements: ChEMBL document CHEMBL3507680

ASSAY OVERVIEW: Human HepG2 cell viability assay in 384 well format
Type: toxicity, cell-based
Parameters: dose 125 nL, time 70.5 hour; concentration not given beside the values
EXPERIMENTAL SETUP: HepG2 cells, read-out: Inhibition

COMPOUND | cytotoxicity at 70.5 h (%)
CCc1nn(C)c(Cl)c1CN1CCC2(C1)CN(C)C(=O)O2 (stereo unspecified) | -17.2
Cc1cc(C)n(CC2CCCCN2C(=O)c2ccc3c(c2)COC3)n1 (stereo unspecified) | 2.1
Cc1n[nH]c2nc(-c3cc(Br)ccc3O)cc(C(=O)O)c12 | 8.54
C[C@@H]1CN(c2ccc(C#N)cn2)CC[C@@]1(O)C1CCOCC1 | 27.2
Cn1ncc2c1C(COCC1CC1)CN(S(C)(=O)=O)C2 (stereo unspecified) | -9.85
CC(=O)NCCCC(=O)NC(C)c1nnc2n1CCC2 (stereo unspecified) | -11.1

###

ASSAY OVERVIEW: Human HepG2 cell viability assay in 384 well format
Type: toxicity, cell-based
Design: dose 125 nL, time 70.5 hour; concentration not given beside the values
EXPERIMENTAL SETUP: HepG2 cells, read-out: Inhibition

MOLECULE | UNIT STRING | cytotoxicity at 70.5 h
c1ccc(OCc2noc(CN3CCN(C4CCCC4)CC3)n2)cc1 | % | 9.68
CN(C)C(=O)N1C[C@@H]2CC[C@H](C1)N(Cc1nnc(-c3ccccc3)o1)C2 | % | -16.7
Cc1noc(C)c1CNC(=O)N1CCC(NS(C)(=O)=O)CC1 | % | -3.15
Cn1cc2c(n1)C(COCC1CC1)CN(Cc1ccsc1)C2 (stereo unspecified) | % | -3.4
O=C(c1ccc(Cl)cc1)N1CCCn2nnc(Cn3cccn3)c2C1 | % | 1.05
O=C(NCc1nnnn1-c1ccccc1)c1ccc(C2CCCO2)s1 (stereo unspecified) | % | -4.49

###

Parameter: cytotoxicity at 70.5 h. Scope: all listed entries.
ASSAY OVERVIEW: Human HepG2 cell viability assay in 384 well format
Type: toxicity, cell-based
Design: dose 125 nL, time 70.5 hour; concentration not given beside the values
EXPERIMENTAL SETUP: HepG2 cells, read-out: Inhibition
VALUE KIND: cytotoxicity at 70.5 h (%)

COMPOUND | VALUE KIND | RECORDED RESULT
CCn1ccnc1CN(C)Cc1nc(Cc2cccc(F)c2)no1 | cytotoxicity at 70.5 h | 11.1
COc1ccc(COCC(O)CNC(=O)c2cccnc2)cc1 (stereo not given) | cytotoxicity at 70.5 h | 32.7
Cc1nnc(CN(C)CC2CCCCC2)o1 | cytotoxicity at 70.5 h | -11.8
CS(=O)(=O)N1CCCC(Cc2cnc(Br)cn2)CC1 (stereo not given) | cytotoxicity at 70.5 h | 13.7
CCN1CCCCC1C(=O)N1CCC(OC2CCCC2)CC1 (stereo not given) | cytotoxicity at 70.5 h | 6.41
O=C(CC1CC1)N1C[C@@H](O)[C@H](N2CCN(c3ccccc3)CC2)C1 | cytotoxicity at 70.5 h | 22.4
Cc1cncc(Oc2ccc(CO)cc2)n1 | cytotoxicity at 70.5 h | -5.95
CSc1ccc(C(CN)N2CCc3sccc3C2)cc1 (stereo not given) | cytotoxicity at 70.5 h | 24.3
COc1ccc(CNC(=O)CCCc2nnc3ccc(OC)nn23)cc1 | cytotoxicity at 70.5 h | -14.6
CCOc1ccccc1CNC(=O)N1CCC(Cc2cnn(C)c2)C1 (stereo not given) | cytotoxicity at 70.5 h | 7.83
Cc1cccnc1[C@H](C)NC(=O)c1cccc(CC2CCNCC2)c1 | cytotoxicity at 70.5 h | 0.55
COC(=O)c1cnc(C(=O)N(c2ccc(OC)c(F)c2)C(C)C)cn1 | cytotoxicity at 70.5 h | 0.246
CCOc1ccc(N2CCCN=C2NC(=O)c2ccc(OC)cc2)cc1 | cytotoxicity at 70.5 h | -9.82
c1cnc(Nc2cncc(C3CCCN(c4cnccn4)C3)n2)nc1 (stereo not given) | cytotoxicity at 70.5 h | -5.35
Cc1cc(C)n(CC2CCCN2C(=O)c2ccc3[nH]c(=O)[nH]c3c2)n1 (stereo not given) | cytotoxicity at 70.5 h | -17.4
Cc1ocnc1CNC(=O)Nc1ccc(N2CCOC(C)C2)cc1 (stereo not given) | cytotoxicity at 70.5 h | -17.7
O=C1CCC(=O)N1c1nn(Cc2c(F)cccc2Cl)cc1Cl | cytotoxicity at 70.5 h | 6.93
O=C(CCc1ccccn1)N1CCSC2(CCCCC2)C1 | cytotoxicity at 70.5 h | 3.22
CCCN1CCCN(C(=O)c2ccc(Oc3cccnc3)cc2)CC1 | cytotoxicity at 70.5 h | -8.42
O=S(=O)(N1CCOCC1)N1CCc2sccc2C1 | cytotoxicity at 70.5 h | 6.06
O=C(Nc1cnn(Cc2ccc(Cl)cc2)c1)N1CCCC1CO (stereo not given) | cytotoxicity at 70.5 h | -7.38
O=C(NCC1CC(=O)N(CCc2ccccc2)C1)c1ccon1 (stereo not given) | cytotoxicity at 70.5 h | -3.55
Cc1ccccc1CCC1CCCN(C(=O)Cc2cc(=O)[nH]c(N)n2)C1 (stereo not given) | cytotoxicity at 70.5 h | 10.8
c1cncc(OCc2nc(C3CC3)nn2-c2ccc3c(c2)OCCO3)c1 | cytotoxicity at 70.5 h | 14.2
CN1CCN(C(=O)C2SCCc3sccc32)CC1 (stereo not given) | cytotoxicity at 70.5 h | -6.9
